Tested on: human lung cancer strain NCI-H441
Assay type: cell-based
Where a SMILES comes first, the peptide text is derived from it. Bridges are numbered along the chain shown (N, C = ends). [ ]: non-standard residue; d: D form. The star is where a group is joined. hPhe(3-Cl-4-CF3) = N[C@@H](CCc1ccc(C(F)(F)F)c(Cl)c1)C(=O)O; NPrPhe(4-CF3) = CCCN[C@@H](Cc1ccc(C(F)(F)F)cc1)C(=O)O; NMeGly(cPent) = CN[C@H](C(=O)O)C1CCCC1; Hyp = O=C(O)[C@@H]1C[C@@H](O)CN1; NMeL = CN[C@@H](CC(C)C)C(=O)O; Morpholide = C1CN(*)CCO1; Ac4c = NC1(C(=O)O)CCC1; Sar = CNCC(=O)O
Value Kind: IC50
Write the figure, then the unit, nothing else.

[
  {
    "Compound": "CCCN1C(=O)CN(C)C(=O)CNC(=O)[C@H]([C@@H](C)CC)NC(=O)[C@H](CC(C)C)N(C)C(=O)C[C@@H](C(=O)N2CCOCC2)NC(=O)[C@H](C2CCCC2)N(C)C(=O)C2(CCC2)NC(=O)[C@@H]2C[C@@H](OCC)CN2C(=O)[C@H](CCc2ccc(C(F)(F)F)c(Cl)c2)NC(=O)CN(C)C(=O)[C@@H]1Cc1ccc(C(F)(F)F)cc1 [PP0330] ([NMeL]IG[Sar][NPrPhe(4-CF3)][Sar][hPhe(3-Cl-4-CF3)][Hyp](Et)[Ac4c][NMeGly(cPent)]D-Morpholide; lactam N-11)",
    "Test Value": "98.2 nM"
  }
]

Switching to the query record.
Any idea what IC50 was measured for "CCO[C@@H]1C[C@H]2C(=O)NC3(CC(C)(C)C3)C(=O)N(C)[C@@H](C(CC)CC)C(=O)N(C)[C@H](C(=O)N(C)C)CC(=O)N(C)[C@@H](C(C)C)C(=O)N[C@@H]([C@@H](C)CC)C(=O)N(C)CC(=O)N(C)[C@H]3C/C=C\CCN(C3=O)[C@@H](Cc3ccc(C)cc3)C(=O)N(C)CC(=O)N[C@@H](CCc3ccc(C(F)(F)F)c(OC)c3)C(=O)N2C1" ? 19.9 nM

----------
Test system: human lung cancer strain NCI-H441
Assay type: cell-based
Value Kind: IC50 (nM)
Give just the numeric value; nM need not be written.

Any idea what IC50 was measured for "C#CC[C@H]1C(=O)N[C@@H]([C@@H](C)CC)C(=O)N(C)CC(=O)N(C)[C@H]2C/C=C\CCN(C2=O)[C@@H](Cc2ccc(C(F)(F)F)cc2)C(=O)N(C)CC(=O)N[C@@H](CCc2cc(F)c(C(F)(F)F)c(F)c2)C(=O)N2C[C@H](OCC)C[C@H]2C(=O)NC2(CCC2)C(=O)N(C)[C@@H](C2CCCC2)C(=O)N(C)[C@H](C(=O)N(C)CCC)CC(=O)N1C" ? 7.2

Further, for "CCCN(C)C(=O)[C@@H]1CC(=O)N(C)[C@@H](CC)C(=O)N[C@@H]([C@@H](C)CC)C(=O)N(C)CC(=O)N(C)[C@H]2C/C=C\CCN(C2=O)[C@@H](Cc2ccc(C(F)(F)F)cc2)C(=O)N(C)CC(=O)N[C@@H](CCc2cc(F)c(C(F)(F)F)c(F)c2)C(=O)N2CC[C@H]2C(=O)NC2(CCC2)C(=O)N(C)[C@@H](C2CCCC2)C(=O)N1C" ? 129

Further, for "CCO[C@@H]1C[C@H]2C(=O)NC3(CC(C)(C)C3)C(=O)N(C)[C@@H](C3CCCC3)C(=O)N(C)[C@@H](C(C)C)CC(=O)N(C)[C@@H](CC3CC3)C(=O)N[C@@H]([C@@H](C)CC)C(=O)N(C)CC(=O)N(C)[C@H]3C/C=C\CCN(C3=O)[C@@H](Cc3ccc(C(F)(F)F)cc3)C(=O)N(C)CC(=O)N[C@@H](CCc3cc(F)c(C(F)(F)F)c(F)c3)C(=O)N2C1" ? 48.8

----------
Biological target: GDP-bound KRAS wild-type protein (Homo sapiens, UniProt P01116)
Sequence (P01116 1-188 isoform P01116-2): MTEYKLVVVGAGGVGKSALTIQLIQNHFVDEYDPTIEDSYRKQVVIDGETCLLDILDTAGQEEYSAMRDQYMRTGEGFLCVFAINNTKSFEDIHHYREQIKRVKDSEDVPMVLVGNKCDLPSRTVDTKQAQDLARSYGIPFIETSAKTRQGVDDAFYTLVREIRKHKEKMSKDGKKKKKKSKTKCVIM
Assay: Binding to KRAS by surface plasmon resonance (SPR), dissociation constant KD
Settings: Single Cycle Kinetics, 1:1 binding model
Value Kind: pKd
# pKd = -log10(concentration in molar units)

[
  {
    "Compound Smiles": "CCO[C@@H]1C[C@H]2C(=O)NC3(CCC3)C(=O)N(C)[C@@H](C3CCCC3)C(=O)N(C)[C@H](C(=O)N(C)C)CC(=O)N(C)[C@@H](CC)C(=O)N[C@@H]([C@@H](C)CC)C(=O)N(C)CC(=O)N(C)[C@H]3C/C=C\\CCN(C3=O)[C@@H](Cc3ccc(C(F)(F)F)cc3)C(=O)N(C)CC(=O)N[C@@H](CCc3ccc(C(F)(F)F)c(C)c3)C(=O)N2C1",
    "pKd": 9.77
  },
  {
    "Compound Smiles": "CCO[C@@H]1C[C@H]2C(=O)NC3(CC(C)(C)C3)C(=O)N(C)[C@@H](C(CC)CC)C(=O)N(C)[C@H](C(=O)N(C)C)CC(=O)N(C)[C@@H](CC)C(=O)N[C@@H]([C@@H](C)CC)C(=O)N(C)CC(=O)N(C)[C@H]3C/C=C\\CCN(C3=O)[C@@H](Cc3ccc(C(F)(F)F)cc3)C(=O)N(C)CC(=O)N[C@@H](CCc3ccc(Cl)c(Cl)c3)C(=O)N2C1",
    "pKd": 8.82
  },
  {
    "Compound Smiles": "CCO[C@@H]1C[C@H]2C(=O)NC3(CCC3)C(=O)N(C)[C@@H](C3CCCC3)C(=O)N(CCC3CCC3)[C@H](C(=O)N3CCOCC3)CC(=O)N(C)[C@@H](CC(C)C)C(=O)N[C@@H]([C@@H](C)CC)C(=O)N(C)CC(=O)N(C)[C@H]3CCCCCN(C3=O)[C@@H](Cc3ccc(C(F)(F)F)cc3)C(=O)N(C)CC(=O)N[C@@H](CCc3cc(F)c(C(F)(F)F)c(F)c3)C(=O)N2C1",
    "pKd": 7.70
  },
  {
    "Compound Smiles": "CCC[C@H]1C(=O)N[C@@H](C2CCCC2)C(=O)N(C)CC(=O)N(C)[C@H]2C/C=C\\CCN(C2=O)[C@@H](Cc2ccc(C)cc2)C(=O)N(C)CC(=O)N[C@@H](CCc2ccc(C(F)(F)F)c(Cl)c2)C(=O)N2C[C@H](OCC)C[C@H]2C(=O)NC2(CC(C)(C)C2)C(=O)N(C)[C@@H](CC(F)(F)F)C(=O)N(C)[C@H](C(=O)N(C)C)CC(=O)N1C",
    "pKd": 8.48
  },
  {
    "Compound Smiles": "CCO[C@@H]1C[C@H]2C(=O)NC3(CCC3)C(=O)N(C)[C@@H](C3CCCC3)C(=O)N(C)[C@H](C(=O)N(C)C)CC(=O)N(C)[C@@H](CC3CCCC3)C(=O)N[C@@H]([C@@H](C)CC)C(=O)N(C)CC(=O)N(C)[C@H]3CCCCN(C3=O)[C@@H](Cc3ccc(C(F)(F)F)cc3)C(=O)N(C)CC(=O)N[C@@H](CCc3cc(F)c(C(F)(F)F)c(F)c3)C(=O)N2C1",
    "pKd": 10.89
  }
]

Any idea what pKd was measured for "CCO[C@@H]1C[C@H]2C(=O)NC3(CCC3)C(=O)N(C)[C@@H](C(CC)CC)C(=O)N(C)[C@H](C(=O)N3CCCC3)CC(=O)N(C)[C@@H](C)C(=O)N[C@@H]([C@@H](C)CC)C(=O)N(C)CC(=O)N(C)[C@H]3C/C=C\CCN(C3=O)[C@@H](CC3CCCCC3)C(=O)N(C)CC(=O)N[C@@H](CCc3cc(F)c(C(F)(F)F)c(F)c3)C(=O)N2C1" ? 9.16

----------
Tested on: human lung cancer strain NCI-H441
Format: cell-based
Where a SMILES comes first, the peptide text is derived from it. Bridges are numbered along the chain shown (N, C = ends). [ ]: non-standard residue; d: D form. The star is where a group is joined. hPhe(3-Cl-4-CF3) = N[C@@H](CCc1ccc(C(F)(F)F)c(Cl)c1)C(=O)O; NPrPhe(4-CF3) = CCCN[C@@H](Cc1ccc(C(F)(F)F)cc1)C(=O)O; NMeGly(cPent) = CN[C@H](C(=O)O)C1CCCC1; Hyp = O=C(O)[C@@H]1C[C@@H](O)CN1; NMeD = CN[C@@H](CC(=O)O)C(=O)O; NMeL = CN[C@@H](CC(C)C)C(=O)O; Morpholide = C1CN(*)CCO1; Aze = O=C(O)[C@@H]1CCN1; Ac4c = NC1(C(=O)O)CCC1; Sar = CNCC(=O)O
Recorded pIC50, one value per entry.
# pIC50 = -log10(concentration in molar units)

[
  {
    "Compound": "CCO[C@@H]1C[C@H]2C(=O)NC3(CC(C)(C)C3)C(=O)N(C)[C@@H](C3CCCC3)C(=O)N(C)[C@H](C(=O)N(C)CC)CC(=O)N(C)[C@@H](CC(C)C)C(=O)N[C@@H]([C@@H](C)CC)C(=O)N(C)CC(=O)N(C)[C@H]3C/C=C\\CCN(C3=O)[C@@H](Cc3ccc(C(F)F)cc3)C(=O)N(C)CC(=O)N[C@@H](CCc3cc(F)c(CC)c(OC)c3)C(=O)N2C1",
    "Target Of Assay": "human lung cancer strain NCI-H441",
    "pIC50": 7.39
  },
  {
    "Compound": "CCO[C@@H]1C[C@H]2C(=O)NC3(CCC3)C(=O)N(C)[C@@H](C3CCCC3)C(=O)N(C)[C@H](C(=O)N(C)C)CC(=O)N(C)[C@@H](CCOC)C(=O)N[C@@H]([C@@H](C)CC)C(=O)N(C)CC(=O)N(C)[C@H]3CCCCN(C3=O)[C@@H](Cc3ccc(C(F)(F)F)cc3)C(=O)N(C)CC(=O)N[C@@H](CCc3cc(F)c(C(F)(F)F)c(F)c3)C(=O)N2C1",
    "Target Of Assay": "human lung cancer strain NCI-H441",
    "pIC50": 7.76
  }
]

Any idea what pIC50 was measured for "CCCO[C@H]1CCN2C(=O)[C@H](CCc3cc(F)c(C(F)(F)F)c(F)c3)NC(=O)CN(C)C(=O)[C@H](Cc3ccc(C(F)(F)F)cc3)N3CCCC[C@@H](C3=O)N(C)C(=O)CN(C)C(=O)[C@H]([C@@H](C)CC)NC(=O)[C@H](CC(C)C)N(C)C(=O)C[C@@H](C(=O)N3CCOCC3)N(C)C(=O)[C@H](C3CCCC3)N(C)C(=O)C3(CCC3)NC(=O)[C@H]12" ? 7.83

Further, for CCCN1C(=O)CN(C)C(=O)[C@@H]2CCN2C(=O)[C@H]([C@@H](C)CC)NC(=O)[C@H](CC(C)C)N(C)C(=O)C[C@@H](C(=O)N2CCOCC2)N(C)C(=O)[C@H](C2CCCC2)N(C)C(=O)C2(CCC2)NC(=O)[C@@H]2C[C@@H](OCC)CN2C(=O)[C@H](CCc2ccc(C(F)(F)F)c(Cl)c2)NC(=O)CN(C)C(=O)[C@@H]1Cc1ccc(C(F)(F)F)cc1 [PP0405] ([NMeL]I[Aze][Sar][NPrPhe(4-CF3)][Sar][hPhe(3-Cl-4-CF3)][Hyp](Et)[Ac4c][NMeGly(cPent)][NMeD]-Morpholide; lactam N-11) ? 7.84

Further, for "CCO[C@@H]1C[C@H]2C(=O)NC3(CC(C)(C)C3)C(=O)N(C)[C@@H](C(CC)CC)C(=O)N(C)[C@H](C(=O)N(C)C)CC(=O)N(C)[C@H]3CCCC/C=C/c4ccc(cc4)C[C@@H](C(=O)N(C)CC(=O)N[C@@H](CCc4cc(F)c(C(F)(F)F)c(F)c4)C(=O)N2C1)N1CC/C=C\C[C@@H](C1=O)N(C)C(=O)CN(C)C(=O)[C@H]([C@@H](C)CC)NC3=O" ? 8.15
